molecular target: T1, soluble human FcRn (human, UniProt P55899 24-297; P61769 21-119, biotinylated (Sulfo-NHS-LC-Biotin) in the ELISA; amine-coupled to CM5 chip in SPR); assay: ELISA, competitor human IgG
T1 construct: also called shFcRn; biotinylated shFcRn
property: IC50 (µM)

[a] QRYXTGHFGGLYPCNGP (Pen at 4; disulfide; C-terminal amide) [Peptide No. 97]
[b] QRWXTGHFGGLYPCNGP (Pen at 4; disulfide; C-terminal amide) [Peptide No. 98]
Hi there! Just curious which has the higher IC50 between a and b . Could you answer with the label of the item you picked?
a

[I] QRFXTGHFGGLYPCNGP (D-Phe at 3; Pen at 4; disulfide; C-terminal amide) [Peptide No. 96]
[II] QRFXTGHFGGLYPCNGP (Pen (L-penicillamine) at 4; disulfide; C-terminal amide) [Peptide No. 32]
Min IC50? I | II Could you answer with the label of the item you picked?
II
(II: 2 µM, I: 11.4 µM)
